Tested on: SNB-19
Experiment: NCI tumour cell line growth inhibition, 48 h
Active and inactive are the calls of the source. No stated cut-off is given here; in the data, active = GI50 up to about 1.1 µM and inactive = higher. Residues, ends and D or L forms follow the SMILES beside them. *: point of attachment. Cbz = O=C(OCc1ccccc1)*; Boc = CC(C)(C)OC(=O)*; OSu = O=C1CCC(=O)N1O*; Bn = c1ccc(C*)cc1
Possible outcomes: 1.0 (active), 0.0 (inactive)

Compound	Classification
Clc1cc2nc[nH]c2cc1Cl	0.0
OCC(O)C(O)C(O)c1nn(-c2ccc(Cl)cc2)c2nc3cc(Cl)c(Cl)cc3nc12 (stereo unspecified)	0.0
CC(C)(C)c1cc(C(C)(C)C)c(SC2OC(CO)C(O)C(O)C2O)c(O)c1O (stereo unspecified)	0.0
CC(C)(C)OC(=O)NC(Cc1ccc(OCc2ccccc2)cc1)C(=O)NC(CCCCNC(=O)OCc1ccccc1)C(=O)NC(CCCCNC(=O)OCc1ccccc1)C(=O)ON1C(=O)CCC1=O (stereo unspecified) (Boc-Tyr(Bn)-Lys(Cbz)-Lys(Cbz)-OSu; configuration not given here)	0.0
CCOC(=O)C1(Cc2ccccc2)CCN(C(=O)c2ccccc2)C2C1C2(Cl)Cl (stereo unspecified)	0.0
Cc1cc(Cl)ccc1N1C(=O)C(=O)C(c2nc3ccccc3o2)C(=O)C1=O	0.0
c1cnc(N2CCN(Cc3c[nH]c4ccccc34)CC2)nc1	0.0
COc1ccc(-c2cc(=O)c3ccccc3o2)cc1N	0.0
COC(=O)Cc1c(C(=O)CC(C)(C)n2cnc(CCN3C(=O)CCC3=O)c2)[nH]c2ccccc12	0.0
COc1cc(-c2oc3c(OC)c(O)c(OC)c(O)c3c(=O)c2OC)cc(OC)c1OC	0.0
CCc1cccc(CC)c1NC(=O)C(=O)Cc1nc2ccccc2o1	0.0
CCCCCCCCCCCCCC(=O)CSCCNC(=O)CCNC(=O)[C@@H](O)C(C)(C)COP(=O)(O)OP(=O)(O)OCC1OC(n2cnc3c(N)ncnc32)C(O)C1OP(=O)(O)O (stereo partly specified)	0.0
COc1cccc2c(Nc3ccc(S(=O)(=O)N=C(N)N)cc3)c3ccc([N+](=O)[O-])cc3nc12	0.0
CN1C[C@H]2[C@@H](C1=O)[C@H](c1ccccc1)ON2C	0.0
CCc1ccccc1NC(=O)/C(CC(=O)c1c(C)[n+]([O-])c2ccccc2[n+]1[O-])=N\NS(=O)(=O)c1ccc(C)cc1	0.0
COc1ccc(/C=N/n2c(=O)[nH]c3ccccc3c2=O)cc1	0.0
Cc1ccc(C)c(NC(=O)C(Cc2c[nH]c3ccccc23)NC(=O)OCc2ccccc2)c1 (stereo unspecified)	0.0
COc1ccc(N2C(=O)C3CC4=CC(=O)C[C@H]4[C@H]32)cc1 (stereo partly specified)	0.0
CC1(C)CC(=O)c2c(nc3ccc4ccccc4c3c2-c2ccc(NC(=O)CCC(=O)Nc3ccc(-c4c5c(nc6ccc7ccccc7c46)CC(C)(C)CC5=O)cc3)cc2)C1	0.0
Cc1ccc2c(C3Cc4ccccc4N3C(=O)/C=C\C(=O)O)c(C)[nH]c2c1 (stereo unspecified)	0.0
COc1ccc(-c2cc(C(O)C3CCCCN3)c3ccccc3n2)cc1 (stereo unspecified)	0.0
Brc1ccc(C2CC(c3cccc4ccccc34)=Nc3ccccc3S2)cc1 (stereo unspecified)	0.0
COc1ccc2[nH]c3c(C)c4ccnc(NCCCN(C)CCCN)c4c(C)c3c2c1	1.0
COC(=O)N/N=C(/Cc1occc(=O)c1O)C(=O)Nc1ccc([N+](=O)[O-])cc1[N+](=O)[O-]	0.0
COc1ccc(/N=C(/C[S+]([O-])c2ccc(C)cc2)C(F)(F)F)cc1 (stereo unspecified)	0.0
CNc1ncnc2c1cnn2Cc1cn(CCCCO)nn1	0.0
OC1CCC(C2C3CCCCC3C3CCCCC3C2C2CCC(O)CC2)CC1 (stereo unspecified)	0.0
COc1ccc(C2ON(c3ccccc3)CC=C2C)cc1 (stereo unspecified)	0.0
Cc1ccc(-c2nc3ccccc3c(=O)n2NCC2(O)OCC(O)C(O)C2O)cc1 (stereo unspecified)	0.0
N#CCN1CCCN(CC#N)CCN(CC#N)CCCN(CC#N)CC1	0.0
CC1=C2C(=C[C@H]3[C@]4(C)CCCC(C)(C)[C@H]4CC[C@]34O[C@H]24)OC1=O	0.0
CN1CCN(c2ncc3c(n2)sc2c(=O)n(-c4ccccc4)cnc23)CC1	0.0
CC1CC(Nc2ccc(Br)cc2)N(C(=O)c2ccc(Br)cc2)O1 (stereo unspecified)	0.0
Oc1cccc2cc(Br)cnc12	0.0
Cc1cc(C(=O)N2CCN(Cc3ccccc3)CC2)c(C)o1	0.0
C(=C/c1nnnn1-c1ccccc1)/Nc1ccccc1	0.0
CCC(=O)N1C(=O)OCC1C(C)C (stereo unspecified)	0.0
COC(=O)c1c(OC)cccc1C(=O)O	0.0
COc1cc2c[n+]3ccc4cc(OC)c(OC)cc4c3cc2cc1O	0.0
COc1ccc(CCN2CCc3c(C)c(C#N)c4nc5ccccc5n4c32)cc1OC	0.0
COc1cc(/C=C(\C#N)C(=O)c2ccccc2)cc(OC)c1OC	0.0
